# EXPERIMENT_DESCRIPTION: The compound was tested for inhibition of streptavidin binding to the TentaGel-bound Ac-HPQFG peptide
Positions of bridges follow the written chain, without caps; N, C: chain ends. Residues, ends and D or L forms follow the SMILES beside them.
QUANTITY: pIC50
Numbers only, as −log10 of the molar value.

INSERT INTO assay_data (molecule, quantity, observed_result) VALUES
  ('C[C@@H]1NC(=O)CC[C@@H](C(=O)N[C@@H](CCCCN)C(N)=O)NC(=O)[C@H](C)NC(=O)[C@@H]2CCCN2C(=O)[C@H](Cc2ccccc2)NC(=O)[C@H](CCC(N)=O)NC(=O)[C@@H]2CCCN2C(=O)[C@H](Cc2c[nH]cn2)NC1=O (AHPQFPAEK-NH2; lactam N-8)', 'pIC50', 6.89);

Please supply pIC50 for each of the following items, keeping them in order.
1. CC[C@H](C)[C@H](NC(=O)[C@H]1CSSC[C@H](NC(=O)[C@H](CCC(=O)O)NC(=O)[C@H](C)N)C(=O)N[C@@H](Cc2c[nH]cn2)C(=O)N2CCC[C@H]2C(=O)N[C@@H](CCC(N)=O)C(=O)NCC(=O)N2CCC[C@H]2C(=O)N2CCC[C@H]2C(=O)N1)C(=O)N[C@@H](CCC(=O)O)C(=O)NCC(=O)N[C@@H](CCCN=C(N)N)C(=O)N[C@@H](CCCCN)C(N)=O
2. C[C@@H]1NC(=O)CNC(=O)[C@H](Cc2ccccc2)NC(=O)[C@H](CCC(N)=O)NC(=O)[C@@H]2CCCN2C(=O)[C@H](Cc2c[nH]cn2)NC(=O)[C@H](C)NC(=O)CC[C@@H](C(=O)N[C@@H](CCCCN)C(N)=O)NC1=O (AHPQFGAEK-NH2; lactam N-8)

1. 6.14
2. 4.72

* * *

Field: IC50. Provide a value for each of the substances that follow.
# EXPERIMENT_DESCRIPTION: The compound was tested for inhibition of streptavidin binding to the TentaGel-bound Ac-HPQFG peptide
Give bare numbers, in µM.

INSERT INTO results (substance, result_units, observed_result) VALUES
  ('Ac-AHPQFGAEK-NH2', 'µM', 204);

For the substance Ac-AHPQFPAEK-NH2 , report IC50.
136
